Data credit: patent EP0668872B1

Tested on: calcium channels
Details: read-out: IC50 values for blocking calcium channels; cerebellar granule cells of 8 day old rats, 6, 7 and 8 days of culture; fura2/AM fluorescence, 37°C
quantity-kind: pIC50
Scale for pIC50: -log10 of concentration given in mol/L; no unit attached.

Asked: Fill in pIC50 for COc1ccc(CCN(C)CCCC(C#N)(c2ccc(OC)c(OC)c2)C(C)C)cc1OC (stereo not shown) [Verapamil] tested with calcium channels.
Given back: 5.32
